Assayed Target: DOR (Rattus norvegicus, UniProt P33533)
Construct: from tissue
Sequence (P33533 whole entry): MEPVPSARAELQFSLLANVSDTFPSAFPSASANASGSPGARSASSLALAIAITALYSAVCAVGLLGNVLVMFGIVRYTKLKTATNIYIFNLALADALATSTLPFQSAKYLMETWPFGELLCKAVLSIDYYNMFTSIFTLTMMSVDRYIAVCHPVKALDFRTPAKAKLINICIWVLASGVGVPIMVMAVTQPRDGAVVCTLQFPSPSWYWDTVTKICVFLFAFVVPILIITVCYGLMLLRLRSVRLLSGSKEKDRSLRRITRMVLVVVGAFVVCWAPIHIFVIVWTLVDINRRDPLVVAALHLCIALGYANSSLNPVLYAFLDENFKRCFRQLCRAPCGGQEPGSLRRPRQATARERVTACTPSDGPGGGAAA
Assay Notes: Opioid receptor binding, DOR, rat brain membranes
Run Conditions: Table 1-4, rat brain membranes; read-out: Binding Ki DOR
pKi: −log10 of the molar value.

{"columns": ["Compound", "pKi"],
 "data": [
  ["CO[C@@]12CCC(=O)[C@@H]3Oc4c(O)ccc5c4[C@@]31CCN(C)[C@@H]2C5 [Compound 14-OMO, 14-O-methyloxymorphone, reference compound]", 8.32],
  ["CN1CC[C@]23c4c5ccc(O)c4O[C@H]2[C@H](N[C@@H](Cc2ccccc2)C(=O)O)CC[C@@]3(O)[C@H]1C5", 8.08],
  ["CC(NC1CCC2(O)C3Cc4ccc(O)c5c4C2(CCN3C)C1O5)C(=O)O (stereo not shown)", 6.77],
  ["CO[C@@]12CC[C@@H](N[C@@H](CCCCN)C(=O)O)[C@@H]3Oc4c(O)ccc5c4[C@@]31CCN(C)[C@@H]2C5", 8.48]
]}

====

Assayed Target: MOR (Rattus norvegicus)
Construct: from tissue
Assay Notes: Opioid receptor binding, MOR, rat brain membranes
Run Conditions: in vitro binding assay, rat brain membranes; read-out: Binding Ki (nM) MOR
Attribute Measured: log10 Ki (log10 of the value in nM)

{"columns": ["Molecule", "Attribute Measured", "Recorded Value"],
 "data": [
  ["CO[C@@]12CC[C@H](N[C@@H](C(=O)OC(C)(C)C)C(C)C)[C@@H]3Oc4c(O)ccc5c4[C@@]31CCN(C)[C@@H]2C5 [30-t-Bu ester]", "log10 Ki", -0.96],
  ["CO[C@@]12CC[C@@H](N[C@@H](Cc3c[nH]c4ccccc34)C(=O)OC(C)(C)C)[C@@H]3Oc4c(O)ccc5c4[C@@]31CCN(C)[C@@H]2C5 [46-t-Bu ester]", "log10 Ki", -0.59],
  ["CCO[C@@]12CC[C@@H](NCC(=O)OC(C)(C)C)[C@@H]3Oc4c(O)ccc5c4[C@@]31CCN(C)[C@@H]2C5 [6-t-Bu ester]", "log10 Ki", -0.09],
  ["CCCCCCCCOC(=O)CN[C@H]1CC[C@@]2(OC)[C@H]3Cc4ccc(O)c5c4[C@@]2(CCN3C)[C@H]1O5 [HS730-nOc ester]", "log10 Ki", 0.11],
  ["CO[C@@]12CC[C@H](N[C@@H](CC(N)=O)C(=O)OC(C)(C)C)[C@@H]3Oc4c(O)ccc5c4[C@@]31CCN(C)[C@@H]2C5 [26-t-Bu ester]", "log10 Ki", -0.35],
  ["CO[C@@]12CC[C@@H](N[C@@H](CCC(=O)OC(C)(C)C)C(=O)OC(C)(C)C)[C@@H]3Oc4c(O)ccc5c4[C@@]31CCN(C)[C@@H]2C5 [20-t-Bu ester]", "log10 Ki", 0.18]
]}

====

Assayed Target: DOR (Rattus norvegicus, UniProt P33533)
Construct: from tissue
Assay Notes: Opioid receptor binding, DOR, rat brain membranes
Run Conditions: Binding Ki DOR, Table 1-6, rat brain membranes
Overview of reported Ki across a group of compounds:
Attribute Measured: Ki (nM)

{"columns": ["Compound", "Attribute Measured", "Unit Symbol", "Recorded Value"],
 "data": [
  ["CO[C@@]12CC[C@@H](N[C@@H](CC(=O)O)C(=O)O)[C@@H]3Oc4c(O)ccc5c4[C@@]31CCN(CC1CC1)[C@@H]2C5", "Ki", "nM", 0.64],
  ["COC12CCC(NC(C(=O)O)C(C)C)C3Oc4c(O)ccc5c4C31CCN(CC1CC1)C2C5 (single isomer, unassigned) [Compound 69]", "Ki", "nM", 1.35],
  ["COC12CCC(NC(C(=O)O)C(C)C)C3Oc4c(O)ccc5c4C31CCN(CC1CC1)C2C5 (single isomer, unassigned) [Compound 70]", "Ki", "nM", 0.71],
  ["CO[C@@]12CC[C@@H](NCCC(=O)O)[C@@H]3Oc4c(O)ccc5c4[C@@]31CCN(CC1CC1)[C@@H]2C5", "Ki", "nM", 8.12],
  ["CO[C@@]12CC[C@@H](N[C@@H](CCC(=O)O)C(=O)O)[C@@H]3Oc4c(O)ccc5c4[C@@]31CCN(CC1CC1)[C@@H]2C5", "Ki", "nM", 2.77],
  ["CCO[C@@]12CCC(=O)[C@@H]3Oc4c(O)ccc5c4[C@@]31CCN(CC1CC1)[C@@H]2C5 [Compound 14-OEt-NTX, 14-O-Ethylnaltrexone, reference compound]", "Ki", "nM", 4.13]
]}

====

Assayed Target: MOR (Rattus norvegicus)
Construct: from tissue
Assay Notes: Opioid receptor binding, MOR, rat brain membranes
Run Conditions: Binding Ki MOR, Table 1-6, rat brain membranes
Overview of reported Ki across a group of molecules:

{"columns": ["Molecule", "Ki (nM)"],
 "data": [
  ["COC12CCC(NC(CCC(=O)O)C(=O)O)C3Oc4c(O)ccc5c4C31CCN(CC1CC1)C2C5 (centres unmarked) [Compound 74]", 1.93],
  ["CO[C@@]12CC[C@@H](N[C@@H](CC(=O)O)C(=O)O)[C@@H]3Oc4c(O)ccc5c4[C@@]31CCN(CC1CC1)[C@@H]2C5 [Compound 73]", 2.24],
  ["CO[C@@]12CC[C@@H](NCC(=O)O)[C@@H]3Oc4c(O)ccc5c4[C@@]31CCN(CC1CC1)[C@@H]2C5 [Compound 62]", 1.31],
  ["CO[C@@]12CC[C@@H](N[C@@H](CCC(=O)O)C(=O)O)[C@@H]3Oc4c(O)ccc5c4[C@@]31CCN(CC1CC1)[C@@H]2C5 [Compound 75]", 3.35],
  ["CO[C@@]12CC[C@H](NCCCC(=O)O)[C@@H]3Oc4c(O)ccc5c4[C@@]31CCN(CC1CC1)[C@@H]2C5 [Compound 65]", 1.21],
  ["CO[C@@]12CC[C@H](NCCC(=O)O)[C@@H]3Oc4c(O)ccc5c4[C@@]31CCN(CC1CC1)[C@@H]2C5 [Compound 63]", 1.35],
  ["CO[C@@]12CC[C@@H](N[C@@H](C)C(=O)O)[C@@H]3Oc4c(O)ccc5c4[C@@]31CCN(CC1CC1)[C@@H]2C5 [Compound 72]", 2.13],
  ["O=C(O)CN[C@H]1CC[C@@]2(O)[C@H]3Cc4ccc(O)c5c4[C@@]2(CCN3CC2CC2)[C@H]1O5 [Compound 67]", 0.88]
]}

====

Assayed Target: DOR (Rattus norvegicus)
Construct: from tissue
Assay Notes: Opioid receptor binding, DOR, rat brain membranes
Run Conditions: Binding Ki (nM) DOR, in vitro binding assay, rat brain membranes

{"columns": ["Compound", "Ki"],
 "data": [
  ["CC[C@H](C)[C@H](N[C@H]1CC[C@@]2(OC)[C@H]3Cc4ccc(O)c5c4[C@@]2(CCN3C)[C@H]1O5)C(=O)O [Compound 42]", "3.2 nM"],
  ["CO[C@@]12CC[C@@H](N[C@@H](C)C(=O)OC(C)(C)C)[C@@H]3Oc4c(O)ccc5c4[C@@]31CCN(C)[C@@H]2C5 [2-t-Bu ester]", "1.36 nM"],
  ["COC12CCC(NCCC(=O)O)C3Oc4c(O)ccc5c4C31CCN(C)C2C5 (single isomer, unassigned) [Compound 21]", "60 nM"],
  ["CO[C@@]12CC[C@H](N[C@@H](CCSC)C(=O)O)[C@@H]3Oc4c(O)ccc5c4[C@@]31CCN(C)[C@@H]2C5 [Compound 23]", "4.03 nM"],
  ["COC12CCC(NC(C(=O)O)C(C)C)C3Oc4c(O)ccc5c4C31CCN(C)C2C5 (single isomer, unassigned) [Compound 30]", "1.93 nM"],
  ["COC12CCC(NC(C)C(=O)O)C3Oc4c(O)ccc5c4C31CCN(C)C2C5 (single isomer, unassigned) [Compound 1]", "26.9 nM"]
]}

====

Assayed Target: MOR (Rattus norvegicus, UniProt P33535)
Construct: from tissue
Sequence (P33535 whole entry): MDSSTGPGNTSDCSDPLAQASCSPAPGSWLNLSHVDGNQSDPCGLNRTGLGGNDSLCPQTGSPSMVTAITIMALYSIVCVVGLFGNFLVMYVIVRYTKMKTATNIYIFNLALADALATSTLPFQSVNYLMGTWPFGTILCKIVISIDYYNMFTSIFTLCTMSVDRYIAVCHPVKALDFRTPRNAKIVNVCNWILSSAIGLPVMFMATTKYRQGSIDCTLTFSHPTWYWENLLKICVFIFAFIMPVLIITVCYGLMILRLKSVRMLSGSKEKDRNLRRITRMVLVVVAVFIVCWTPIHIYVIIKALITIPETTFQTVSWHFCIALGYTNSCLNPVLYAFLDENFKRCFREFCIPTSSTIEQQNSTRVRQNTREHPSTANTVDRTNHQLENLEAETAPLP
Assay Notes: Opioid receptor binding, MOR, rat brain membranes
Run Conditions: Binding Ki (nM) MOR, in vitro binding assay, rat brain membranes

{"columns": ["Chemical Structure", "Ki / nM"],
 "data": [
  ["CO[C@@]12CC[C@H](N[C@@H](CCC(N)=O)C(=O)O)[C@@H]3Oc4c(O)ccc5c4[C@@]31CCN(C)[C@@H]2C5", 3.24],
  ["CO[C@@]12CC[C@@H](NCCC(=O)OC(C)(C)C)[C@@H]3Oc4c(O)ccc5c4[C@@]31CCN(C)[C@@H]2C5", 0.35],
  ["CC[C@H](C)[C@H](N[C@H]1CC[C@@]2(OC)[C@H]3Cc4ccc(O)c5c4[C@@]2(CCN3C)[C@H]1O5)C(=O)O", 0.84]
]}

====

Assayed Target: MOR (Rattus norvegicus)
Construct: from tissue
Assay Notes: Opioid receptor binding, MOR, rat brain membranes
Run Conditions: Binding Ki MOR, Table 2-6, rat brain membranes
pKi: −log10 of the molar value.

{"columns": ["Chemical Structure", "Assayed Target", "pKi"],
 "data": [
  ["CO[C@@]12CC[C@H](N[C@@H](CC(C)C)C(=O)O)[C@@H]3Oc4c(O)ccc5c4[C@@]31CCN(CC1CC1)[C@@H]2C5", "MOR (Rattus norvegicus)", 9.14],
  ["CO[C@@]12CC[C@@H](N[C@@H](C)C(=O)O)[C@@H]3Oc4c(O)ccc5c4[C@@]31CCN(CC1CC1)[C@@H]2C5", "MOR (Rattus norvegicus)", 8.67],
  ["CO[C@@]12CC[C@H](N[C@@H](C(=O)OC(C)(C)C)C(C)C)[C@@H]3Oc4c(O)ccc5c4[C@@]31CCN(CC1CC1)[C@@H]2C5", "MOR (Rattus norvegicus)", 9.20]
]}
